B1: VH:VL chains; a variant is named by its letters at X, in order (parent)
chain 1: QVQLVQSGAEVKKPGASVKVSCKASGYTFTDYXMHWVRQAPGQGLEWMGXVNPNXXXTTYNQKFEGRVTMTTDTSTSTAYMELRSLRSDDTAVYYCARXNXLDXWGQGTTVTVSS
chain 2: DIQMTQSPSSLSASVGDRVTITCSVSSSVSSIYLHWYQQKPGKAPKLLIYSTSNLASGVPSRFSGSGSGTDFTLTISSLQPEDFATYYCQVYSGYPLTFGGGTKVEIK

Variants of: B1
Test: yeast display scFab, FACS + sequencing
Settings: with MET
This is one part of the list. The true hit rate is not given.
Readout type: antigen binding call

Example results:
mutant_designation=YEGGADVA readout_type="antigen binding call" result="no binding"
mutant_designation=FRRGGAWV readout_type="antigen binding call" result=binds
mutant_designation=VKATAVAV readout_type="antigen binding call" result="no binding"
mutant_designation=DRKGGDWS readout_type="antigen binding call" result="no binding"
mutant_designation=DEGKAAGS readout_type="antigen binding call" result="no binding"

Give me antigen binding call for each of these variants, listed below.
1. DRRRGALD
2. YRGKGAWY
3. DTGGDDGF
4. VAKADALD
5. FRRGGAVV

Response:
binds
binds
no binding
no binding
binds
